# assayed_system: Sialic acid-binding Ig-like lectin 9 (Homo sapiens) (UniProt Q9Y336)
# Sequence (Q9Y336 whole entry): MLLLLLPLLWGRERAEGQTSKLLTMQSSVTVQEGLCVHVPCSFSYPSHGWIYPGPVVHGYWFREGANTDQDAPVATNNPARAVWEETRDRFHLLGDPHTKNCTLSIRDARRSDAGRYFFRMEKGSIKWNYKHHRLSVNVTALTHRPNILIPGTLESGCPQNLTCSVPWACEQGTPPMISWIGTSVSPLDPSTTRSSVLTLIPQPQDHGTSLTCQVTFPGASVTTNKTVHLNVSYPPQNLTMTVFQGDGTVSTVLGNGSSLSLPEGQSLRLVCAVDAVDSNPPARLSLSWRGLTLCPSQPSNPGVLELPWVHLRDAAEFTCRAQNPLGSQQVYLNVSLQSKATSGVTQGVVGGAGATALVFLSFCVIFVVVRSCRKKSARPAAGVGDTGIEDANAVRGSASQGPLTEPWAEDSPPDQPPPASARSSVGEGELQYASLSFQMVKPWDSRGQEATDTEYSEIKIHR
# assay_method_text: Hs-Siglec9 ALPHAscreen SOP 20170721
# Design: scale not given: direction of the effect not stated beside the values
# condition: 10 µM
reported_property: Percent Effect (%)
Answers are plain numbers, in %.

Some solved cases for reference:
[[record]]
compound = "Cc1cnccc1CN1C[C@@H](O)[C@H](Oc2ccccc2)C1"
quantitative_result = 0.247

[[record]]
compound = "O=C(NCCc1ccn(-c2ccccc2)n1)N1CCC1"
quantitative_result = -16.6

[[record]]
compound = "Cc1nc(C)n(CC2CCCCN2Cc2ncc(C(C)(C)C)o2)n1 (centres undefined)"
quantitative_result = -3.37


Give measured Percent Effect for every item shown.
1. CN(C)Cc1cnc2n1CCN(Cc1ccsc1)CC2
2. COc1cc(C(=O)Nc2c(C)noc2C)ccc1C
3. O=C(NCCOc1ncc(Cl)cc1Cl)c1ccncc1F
4. COc1cccc(C2CC(=O)Nc3nc(N)sc32)c1OC (centres undefined)
5. Cc1ccc(N2CCC3(CCCN(C(=O)c4cccnc4)C3)C2)nn1 (centres undefined)
6. CC(=O)N1CCC2(CCCN(Cc3ccc(Cl)c(C(F)(F)F)c3)C2)C1 (centres undefined)
7. CN1CCN(CC2CC2)C(=O)c2cnc(N3CC[C@@H](O)C3)nc21

6.79
6.13
-3.73
-2.19
11
-5.84
-4.48
